- Tested on: WNK2;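 further: KINOMEscan kinase panel screen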
- CONDITION CONTEXT: concentration: 1 μM, replicates: in singlicate; n = 1

- COMPOUND: "COc1cccc(NC(=O)NCCNc2ccnc(Nc3ccc(F)cc3)n2)c1"
  TARGET: "WNK2"
  %Inh [%]: 22
- COMPOUND: "Cc1cccc(Nc2nc(NCCN)ncc2C(N)=O)c1"
  TARGET: "WNK2"
  %Inh [%]: 0
- COMPOUND: "COc1cc(Nc2nccc(N3CCC(NC(=O)Nc4ccc5c(c4)OCO5)C3)n2)cc(OC)c1OC (stereo not drawn)"
  TARGET: "WNK2"
  %Inh [%]: 11
- COMPOUND: "Cl.Cl.NC(CNC(=O)c1cc(Br)c(-c2ccnc3[nH]ccc23)s1)c1ccccc1 (stereo not drawn)"
  TARGET: "WNK2"
  %Inh [%]: 0
- COMPOUND: "CN(C)CCOc1ccc(-c2cc(-c3ccc(Cl)c(O)c3)c(-c3ccncc3)[nH]2)cc1.Cl.Cl"
  TARGET: "WNK2"
  %Inh [%]: 21
- COMPOUND: "Cc1ccc(O)cc1Nc1ccnc2cc(-c3ccc(CN4CCCCC4)o3)ccc12"
  TARGET: "WNK2"
  %Inh [%]: 0
- COMPOUND: "O=C(Nc1n[nH]c2cc(-c3cccs3)ccc12)C1CC1"
  TARGET: "WNK2"
  %Inh [%]: 0
- COMPOUND: "Cc1ccc(NC(=O)c2ccnc(N3CCCCC3)c2)cc1-c1ccc(C(=O)NCC2CC2)cc1"
  TARGET: "WNK2"
  %Inh [%]: 9
- COMPOUND: "N#Cc1cnc2cc(-c3cnc(CNCCN4CCOCC4)s3)ccc2c1Nc1ccc(Oc2ccccc2)cc1"
  TARGET: "WNK2"
  %Inh [%]: 95.9
- COMPOUND: "c1ccc(Oc2ccc(Nc3ccnc4cc(-c5ccc(CN6CCCCC6)o5)ccc34)cc2)nc1"
  TARGET: "WNK2"
  %Inh [%]: 39
- COMPOUND: "Cc1ccccc1CC(=O)N1CCc2cc(-c3cn(C)c4ncnc(N)c34)ccc21"
  TARGET: "WNK2"
  %Inh [%]: 25
- COMPOUND: "Nc1cccc(-c2ccc3c(N)n[nH]c3c2)c1"
  TARGET: "WNK2"
  %Inh [%]: 0
- COMPOUND: "COC(=O)Nc1nc2ccc(Oc3ccc(NC(=O)Nc4cc(C(F)(F)F)ccc4F)cc3)cc2[nH]1.Cl"
  TARGET: "WNK2"
  %Inh [%]: 27
- COMPOUND: "CC(C)c1nc(-c2ccc(F)c(NS(=O)(=O)c3c(F)cccc3F)c2)c(-c2ccnc(Nc3ccc(N4CCOCC4)nc3)n2)s1"
  TARGET: "WNK2"
  %Inh [%]: 0
- COMPOUND: "Fc1cc(Cl)ccc1Nc1ccnc2cc(-c3ccc(CN4CCSCC4)o3)ccc12"
  TARGET: "WNK2"
  %Inh [%]: 0
